# target.entity: T1, recombinant SARS-CoV-2 Spike RBD domain, BA.2.86 variant (SARS-CoV-2)
# T1 construct: also called RBD BA.2.86 variant
# method.notes: competition ELISA, blocking of RBD binding to ACE2 ectodomain
Doc: threshold 90% (exclusive). Items with Blocking % beneath it return met; others return not met.

[
  {
    "binder": "SPK002M B2 antibody (antibody, human IgG1, kappa, V domains shown) VH: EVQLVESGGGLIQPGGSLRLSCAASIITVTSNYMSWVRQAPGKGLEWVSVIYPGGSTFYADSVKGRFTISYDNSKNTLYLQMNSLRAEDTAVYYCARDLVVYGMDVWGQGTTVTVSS VL: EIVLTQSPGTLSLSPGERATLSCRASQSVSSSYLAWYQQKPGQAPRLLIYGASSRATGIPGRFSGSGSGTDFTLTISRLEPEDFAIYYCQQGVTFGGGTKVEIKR",
    "class.label": "met"
  }
]

query: Given SPK002M C1 antibody (antibody, human IgG1, kappa, V domains shown) VH: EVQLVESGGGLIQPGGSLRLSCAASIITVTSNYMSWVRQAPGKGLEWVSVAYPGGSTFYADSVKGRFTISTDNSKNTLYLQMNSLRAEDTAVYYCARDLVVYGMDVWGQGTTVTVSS VL: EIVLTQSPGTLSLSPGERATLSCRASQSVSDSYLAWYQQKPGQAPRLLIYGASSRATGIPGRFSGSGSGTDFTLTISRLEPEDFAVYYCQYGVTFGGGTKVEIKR , is recorded Blocking % strictly lower than 90%?
result: not met

query: Try the binder SPK002M A2 antibody (antibody, human IgG1, kappa, V domains shown) VH: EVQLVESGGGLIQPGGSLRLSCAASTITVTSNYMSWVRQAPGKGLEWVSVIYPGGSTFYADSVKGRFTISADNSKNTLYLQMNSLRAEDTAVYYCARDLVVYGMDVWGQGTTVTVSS VL: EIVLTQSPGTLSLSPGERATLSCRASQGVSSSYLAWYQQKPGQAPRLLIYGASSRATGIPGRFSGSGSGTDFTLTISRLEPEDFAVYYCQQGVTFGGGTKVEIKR
result: met

query: Try the binder SPK002M B1 antibody (antibody, human IgG1, kappa, V domains shown) VH: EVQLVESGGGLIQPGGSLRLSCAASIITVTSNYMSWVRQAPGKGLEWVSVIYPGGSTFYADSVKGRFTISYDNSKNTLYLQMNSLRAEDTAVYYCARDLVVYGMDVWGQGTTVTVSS VL: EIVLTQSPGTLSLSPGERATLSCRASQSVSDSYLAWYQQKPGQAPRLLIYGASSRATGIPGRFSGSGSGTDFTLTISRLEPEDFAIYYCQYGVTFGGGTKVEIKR
result: not met
